- assay-explanation: A qHTS for Small Molecule Inhibitors of Shiga Toxin (Confirmatory); note: nearly all actives have a fitted effect of over 75% in size
- experimental-context: Cell-based Shiga toxin protection reporter assay; series mostly up to 38.3 µM
Inconclusive results are not listed. Activity calls are given as the source filed them. Calls come from the whole dose curve.
Outcome codes: TRUE = active, FALSE = inactive

- compound: "CN1CCN(C(=O)CN(C)S(=O)(=O)c2ccc(F)cc2)CC1"
  label-class: "FALSE"
- compound: "Cn1c(=O)c2ncn(CC(=O)NCCOc3ccccc3)c2n(C)c1=O"
  label-class: "FALSE"
- compound: "CS(=O)(=O)N(CC(=O)Nc1ccccc1Sc1ccccc1)C1CCCCC1"
  label-class: "FALSE"
- compound: "COCCCn1c(SCC(=O)OC2CCCCC2)nnc1-c1cccs1"
  label-class: "FALSE"
- compound: "Cc1ccc(C(=O)CSc2nnnn2C(C)C)c(C)c1"
  label-class: "TRUE"
- compound: "Cc1nn(-c2ccc(C(=O)O)cc2)c2c1C(=O)CC(C)(C)C2"
  label-class: "FALSE"
- compound: "COc1ccccc1C(=O)CSc1nccn1C"
  label-class: "TRUE"
- compound: "Cc1sc(NC(=O)CCCC(=O)O)c(C(N)=O)c1-c1ccccc1"
  label-class: "TRUE"
- compound: "CC1CCc2sc(C(=O)NN)cc2C1 (configuration not stated)"
  label-class: "FALSE"
- compound: "COc1ccc(NC(=O)c2c(Cl)n(C)c3ccccc23)cc1"
  label-class: "TRUE"
- compound: "CCCC(=O)Nc1cnc(NC(=O)c2cccc(F)c2)cc1C"
  label-class: "TRUE"
- compound: "Cc1ccc(-c2nnc(SCC(=O)NC3CCCC3)n2C)cc1"
  label-class: "FALSE"
